Target: T1, human Tim-3 expressed on the cell surface (human, UniProt Q8TDQ0 22-301)
T1 construct: also called hTim-3; Human Tim-3 (CHO)
Assay: flow cytometry, CHO-human Tim-3 cells;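 also: antibodies bound on ice for 60 min, detected by PE anti-human IgG Fc secondary, mean fluorescence intensity fit to one-site specific binding with Hill slope, parental CHO cells as nonspecific control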
Measurement label: pKd
Give bare numbers, as −log10 of the molar value.

Worked cases, answers included:
Binder	pKd
h22E11-VK3-11 × h22E11-VH4-30-4 (antibody, V domains shown, Humanized m22E11) VH: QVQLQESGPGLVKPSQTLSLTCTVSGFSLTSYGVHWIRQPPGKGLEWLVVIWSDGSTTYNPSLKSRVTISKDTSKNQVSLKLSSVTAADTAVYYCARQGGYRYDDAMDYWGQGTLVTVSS VL: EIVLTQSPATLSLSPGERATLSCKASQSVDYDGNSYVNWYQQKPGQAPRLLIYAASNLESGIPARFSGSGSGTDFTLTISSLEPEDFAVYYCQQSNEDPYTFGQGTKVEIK	9.00
h22E11-VK1-39 × h22E11-5-IgG-HC (antibody, V domains shown, Humanized m22E11) VH: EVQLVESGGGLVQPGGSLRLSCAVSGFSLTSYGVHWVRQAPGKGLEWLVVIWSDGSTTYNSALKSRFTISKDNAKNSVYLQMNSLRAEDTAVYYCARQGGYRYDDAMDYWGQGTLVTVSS VL: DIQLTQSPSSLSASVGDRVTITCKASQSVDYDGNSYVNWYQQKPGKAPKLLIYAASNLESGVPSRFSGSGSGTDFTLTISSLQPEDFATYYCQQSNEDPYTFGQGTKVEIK	9.22

Proceeding to the next binder to report its pKd.
Prompt: Quick one: give measured pKd for h22E11-VK4-1 × h22E11-VH4-30-4 (antibody, V domains shown, Humanized m22E11) VH: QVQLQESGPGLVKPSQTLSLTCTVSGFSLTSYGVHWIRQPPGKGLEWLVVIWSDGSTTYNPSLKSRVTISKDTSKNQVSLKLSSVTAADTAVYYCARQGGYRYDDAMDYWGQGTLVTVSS VL: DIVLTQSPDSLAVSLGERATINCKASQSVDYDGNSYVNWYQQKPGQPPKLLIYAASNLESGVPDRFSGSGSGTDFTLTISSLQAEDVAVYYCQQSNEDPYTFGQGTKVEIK
Completion: 8.96

Every entry's value here was drawn from patent US20200190192A1.
